- procedure-details: probe aNOTCH2 binding on compound microarray – biochemical, small-molecule microarray, 635/667 nm fluorescence, primary screen (AID 1121);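 note: score merges feature fluorescence read at 667 nm with its signal to noise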
- assay-context: higher = more signal
Measured composite z-score of individual entries
readout: composite z-score

| compound | value-reported |
| --- | --- |
| Cc1ccc(N2C(=O)c3ccccc3[C@](C)(C(=O)NC(C)C)[C@@H]2c2ccc(CO)cc2)nc1 | -0.183 |
| C=C(/C(=C/C[C@@H](OC(=O)c1ccncc1)c1ccccc1OCCO)c1cnc2ccccc2c1)C(C)C | 0.0002 |
| [N-]=[N+]=Nc1ccccc1[C@@H]1OC(c2ccc(OCCCO)cc2)=N[C@]1(CCS(=O)(=O)c1ccccc1)C(=O)NCc1ccccc1 | 0.38 |
| COc1cc(C(O)C2C=CC3C(=O)NC(=O)C3N2Nc2ccc(Cl)cc2Cl)cc(OC)c1OC (stereo unspecified) | 0.0956 |
| CC1=C2[C@@H](CCc3ccccc3)OB(O)C[C@@H]2[C@@H]2C(=O)C=CC(=O)[C@@H]2C1 | 0.0777 |
| CC(C)NC(=O)[C@@]1(Cc2ccccc2I)c2ccccc2C(=O)N(Cc2ccccc2C(F)(F)F)[C@H]1c1ccc(CO)cc1 | 0.0509 |

###

- Tested on: Human papillomavirus type 1a protein E7 (residues 44-93)
- procedure-details: small molecules binding HPV E7 44-93 – biochemical, small-molecule microarray, residues 44-93, 635 nm fluorescence, primary screen (AID 1108);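 note: E7 fragment applied at 1 µg/mL in TBST for 1 h at 4 C; score combines spot fluorescence with its signal to noise ratio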
- assay-context: fluorescence 635 nm, higher = more signal
Could you label it Met if measured composite z-score is 1 or higher, and Not met otherwise?

| molecule | answer-label |
| --- | --- |
| O=C(NCc1ccccc1)[C@]1(Cc2ccccc2)N=C(c2ccc(OCCCO)cc2)O[C@@H]1c1ccccc1 | Met |
| O=C1N(CCS(=O)(=O)c2ccccc2)c2ccccc2[C@H]2OC(c3ccc(OCCCO)cc3)=N[C@@]12CCS(=O)(=O)c1ccccc1 | Met |
| CC(C)NC(=O)[C@@H]1c2ccccc2C(=O)N(Cc2cc(C(F)(F)F)cc(C(F)(F)F)c2)[C@H]1c1ccc(CO)cc1 | Not met |
| CC1=C2[C@@H](CCc3ccccc3)OB(O)C[C@@H]2[C@@H]2C(=O)C=CC(=O)[C@@H]2C1 | Not met |
| CC1C=C(CCCO)C=C(C(=O)OCCS(C)(=O)=O)C(C(=O)OCCS(C)(=O)=O)=CN1Cc1cccc(OC(F)(F)F)c1 (stereo not given) | Met |

###

- procedure-details: inhibition of PAO1 biofilm formation – strain PAO1, LB-PBS medium, absorbance 600 nm, primary screen (AID 1176); note: test concentration not given here
- assay-context: P. aeruginosa PAO1 growth/biofilm, A600, 12 h; higher = more signal
Measured z-score of individual entries

| compound | z-score |
| --- | --- |
| COC(=O)[C@@]1(Cc2ccc(OC)cc2)[C@H]2c3cc(C(=O)N(C)C)n(Cc4cc(F)c(F)c(F)c4)c3C[C@H]2CN1C(=O)c1ccccc1 | 4.06 |
| COCC(=C=CC[C@@H](O)c1ccccc1OCCO)C[C@@H](O)COCc1ccccc1 | 0.191 |
| CC(C)(C)OC(=O)CC[C@]1(C(=O)N2CCCCC2)N=C(c2ccc(OCCCO)cc2)O[C@H]1c1ccccc1CN=[N+]=[N-] | 0.618 |
| COCCOC(=O)N1C(=O)[C@@]2(c3cc(C#Cc4ccc(OC)cc4)ccc31)[C@H](C(N)=O)[C@H]1C(=O)O[C@H](c3ccccc3)[C@H](c3ccccc3)N1[C@@H]2c1ccc(OCCO)cc1 | 1.71 |
| CC(C)C[C@H]1NC(=O)[C@H](C)NC(=O)[C@@]23C(=O)N[C@@H](Cc4ccccc4)C2[C@H](C)[C@@]2(C)O[C@H]2C3/C=C/C/C=C\CNC1=O (stereo not given in full) | 0.413 |
